Molecular target: Gal(b1-3)GlcNAc
Test: glycan array binding signal (z-score within array); higher = stronger binding
Details: glycan notation: IUPAC condensed, linker removed
This is one part of a sample in which the strongest signals are shown more often than they occur.
ASSAY ENDPOINT: glycan array binding signal (z-score)
Give bare numbers.

Consider the binder Gal 4 (Mus musculus), P56470 (protein) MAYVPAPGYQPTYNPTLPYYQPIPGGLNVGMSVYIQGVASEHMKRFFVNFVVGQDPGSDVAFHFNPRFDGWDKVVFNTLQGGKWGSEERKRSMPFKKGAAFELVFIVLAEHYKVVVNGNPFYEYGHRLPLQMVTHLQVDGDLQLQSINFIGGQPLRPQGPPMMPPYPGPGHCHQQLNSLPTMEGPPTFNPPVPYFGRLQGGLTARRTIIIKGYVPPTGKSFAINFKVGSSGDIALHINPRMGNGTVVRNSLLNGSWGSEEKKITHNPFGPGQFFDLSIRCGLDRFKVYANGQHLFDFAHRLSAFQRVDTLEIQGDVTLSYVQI . State its measured glycan array binding signal (z-score). -0.228

# credit: the supplement of paper PMC8728848
